Test system: MDA-MB-453
experiment.description: Cell proliferation assay, Cell Titer Glo (CTG) method, MDA-MB-453
Assay type: cell-based
details: Homo sapiens, MDA-MB-453, 72 h, Table 2, read-out: MDA-MB-453 72 h IC50
measured.endpoint: IC50

                                   compound     result
0  O=C(Nc1ccc(-c2cc(-c3ccc4[nH]ncc4c3)c(=O)n(CC(F)(F)F)n2)cc1)N1Cc2ccncc2C1 [Example 22]  < 0.03 nM
1  NCCCCn1nc(-c2ccc(NC(=O)N3Cc4ccncc4C3)cc2)cc(-c2ccc3cccnc3c2)c1=O [Example 25]  < 0.03 nM
2  Cc1nnc(-c2cc(-c3ccc(NC(=O)N4Cc5ccncc5C4)cc3)nn(CCCCCCN)c2=O)o1 [Example 10]  0.0943 nM

Give recorded IC50 with MDA-MB-453 for the following compound: O=C(Nc1ccc(-c2cc(-c3ccc4[nH]ncc4c3)c(=O)[nH]n2)cc1)N1Cc2ccncc2C1 [Example 16]
< 0.03 nM

Please tell me: IC50 of O=C(Nc1ccc(-c2cc(-c3cccc4[nH]cnc34)c(=O)[nH]n2)cc1)N1Cc2ccncc2C1 [Example 26] , system MDA-MB-453?
< 0.03 nM

Any idea what IC50 came out for Cc1nnc(-c2cc(-c3ccc(NC(=O)N4Cc5ccncc5C4)cc3)n[nH]c2=O)o1 [Example 9] on MDA-MB-453?
0.0357 nM

IC50 of O=C1NN=C(c2ccc(NC(=O)N3Cc4ccncc4C3)cc2)CC1c1ccc2[nH]ccc2c1 (stereo not shown) [Example 21] on MDA-MB-453?
< 0.03 nM

* * *

Test system: THP-1
experiment.description: Cell proliferation assay, Cell Titer Glo (CTG) method, THP-1
Format: cell-based, human
details: Homo sapiens, THP-1; Table 2; 72 h
measured.endpoint: pIC50
Entry type: numeric. Quantity: pIC50, the -log10 of concentration in molar units.

# annotated cases, reported pIC50 shown
In [3]: df
Out[3]:
                                   compound  result
0  NCCCCn1nc(-c2ccc(NC(=O)N3Cc4ccncc4C3)cc2)cc(-c2ccc3cccnc3c2)c1=O   10.64
1  O=C(Nc1ccc(-c2cc(-c3ccc4cccnc4c3)c(=O)[nH]n2)cc1)N1Cc2ccncc2C1   11.00

We now examine a further compound.
Can you share its pIC50? I mean this compound: Cc1nnc(C2CC(c3ccc(NC(=O)N4Cc5ccncc5C4)cc3)=NNC2=O)o1 (stereo not shown)
9.00

* * *

Test system: THP-1
experiment.description: Cell proliferation assay, Cell Titer Glo (CTG) method, THP-1
Type: cell-based, human
details: Homo sapiens, THP-1; Table 2; 72 h
Rule for this label: T means IC50 is less than 0.4 nM; F means IC50 is at least 0.4 nM.

These solved cases illustrate the format of a correct answer.
>>> print(df.to_string())
                                   molecule  answer_label
0  NCCCCN1N=C(c2ccc(NC(=O)N3Cc4ccncc4C3)cc2)C[C@](c2cccc3ncccc23)(C(F)(F)F)C1=O             F
1  O=C1NN=C(c2ccc(NC(=O)N3Cc4ccncc4C3)cc2)CC1c1cccc2ncccc12 (stereo not shown)             T
2  Cc1nnc(C2CC(c3ccc(NC(=O)N4Cc5ccncc5C4)cc3)=NN(CCCCCCN)C2=O)o1 (stereo not shown)             T
3  O=C1NN=C(c2ccc(NC(=O)N3Cc4ccncc4C3)cc2)CC1c1ccc2[nH]ccc2c1 (stereo not shown)             T
4  Cc1nnc(-c2cc(-c3ccc(NC(=O)N4Cc5ccncc5C4)cc3)n[nH]c2=O)o1             F
5  Cc1nnc(-c2cc(-c3ccc(NC(=O)N4Cc5ccncc5C4)cc3)nn(CCCCCCN)c2=O)o1             T
6  O=C1NN=C(c2ccc(NC(=O)N3Cc4ccncc4C3)cc2)CC1c1ccc2[nH]ncc2c1 (stereo not shown)             T
7  Cc1nnc(-c2cc(-c3ccc(NC(=O)N4Cc5ccncc5C4)cc3)nn(CCCCN)c2=O)o1             F
8  O=C(Nc1ccc(-c2cc(-c3cccc4ncccc34)c(=O)[nH]n2)cc1)N1Cc2ccncc2C1             T

Dear colleague, could you confirm whether IC50 of NCCCCCCn1nc(-c2ccc(NC(=O)N3Cc4ccncc4C3)cc2)cc(-c2cccc3ncccc23)c1=O falls below 0.4 nM? Thanks.
T

* * *

Each entry below carries its recorded pIC50.
Test system: MDA-MB-453
experiment.description: Cell proliferation assay, Cell Titer Glo (CTG) method, MDA-MB-453
Assay type: cell-based
details: Homo sapiens, MDA-MB-453, 72 h, Table 2, read-out: MDA-MB-453 72 h IC50
pIC50: −log10 of the molar value.

>>> print(df.to_string())
                                   compound   result
0  NCCCCCCN1N=C(c2ccc(NC(=O)N3Cc4ccncc4C3)cc2)CC(c2cccc3ncccc23)(C(F)(F)F)C1=O (stereo not shown)  > 10.52

Can you share its pIC50? I mean this compound: O=C1NN=C(c2ccc(NC(=O)N3Cc4ccncc4C3)cc2)CC1c1ccc2[nH]ncc2c1 (stereo not shown)
> 10.52

Dear colleague, I am looking for the recorded pIC50 of the following compound: Cc1nnc(C2CC(c3ccc(NC(=O)N4Cc5ccncc5C4)cc3)=NNC2=O)o1 (stereo not shown)
9.52

Please report the recorded pIC50 for NCCCCCCn1nc(-c2ccc(NC(=O)N3Cc4ccncc4C3)cc2)cc(-c2cccc3ncccc23)c1=O .
> 10.52

* * *

Test system: MDA-MB-453
experiment.description: Cell proliferation assay, Cell Titer Glo (CTG) method, MDA-MB-453
Format: cell-based
details: Homo sapiens, MDA-MB-453, 72 h, Table 2, read-out: MDA-MB-453 72 h IC50
Procedure: Cell Proliferation Assay for Nampt-ADCs and Nampt-SMOLs Cell Titer Glo (CTG) Method To this end, 75 μL per well CTG solution (Promega, catalog #G755B and G756B) was added to cells in sister plates, incubated for 10 min, and luminescence was measured on a VICTOR V instrument (Perkin Elmer). […]
measured.endpoint: IC50

In the examples that follow, each entry is paired with its recorded IC50.
>>> print(df.to_string())
                                   molecule      target   result
0  O=C(Nc1ccc(-c2cc(-c3ccc4[nH]ccc4c3)c(=O)[nH]n2)cc1)N1Cc2ccncc2C1 [Example 20]  MDA-MB-453  < 30 pM
1  O=C(Nc1ccc(-c2cc(-c3cccc4[nH]ncc34)c(=O)[nH]n2)cc1)N1Cc2ccncc2C1 [Example 18]  MDA-MB-453  < 30 pM
2  NCCCCN1N=C(c2ccc(NC(=O)N3Cc4ccncc4C3)cc2)C[C@](c2cccc3ncccc23)(C(F)(F)F)C1=O [Example 13]  MDA-MB-453   436 pM
3  Cc1nnc(-c2cc(-c3ccc(NC(=O)N4Cc5ccncc5C4)cc3)nn(CCCCN)c2=O)o1 [Example 8]  MDA-MB-453  2660 pM

Could you share which IC50 value was measured for O=C(Nc1ccc(-c2cc(-c3ccc4cccnc4c3)c(=O)[nH]n2)cc1)N1Cc2ccncc2C1 [Example 24] ?
< 30 pM

* * *

Tested on: A549 C4.4a B4
experiment.description: Cell proliferation assay, Cell Titer Glo (CTG) method, A549 C4.4a B4
Format: cell-based, human
details: Table 2; 72 h; read-out: A549 C4.4a B4 72 h IC50
Description: Cell Proliferation Assay for Nampt-ADCs and Nampt-SMOLs Cell Titer Glo (CTG) Method To this end, 75 μL per well CTG solution (Promega, catalog #G755B and G756B) was added to cells in sister plates, incubated for 10 min, and luminescence was measured on a VICTOR V instrument (Perkin Elmer). […]
measured.endpoint: pIC50
Please note pIC50 is a logarithmic value: minus log10 of concentration in mol/L. Answer with that number alone.

If you can, please state the reported pIC50 value of NCCCCCCN1N=C(c2ccc(NC(=O)N3Cc4ccncc4C3)cc2)CC(c2ccc3cccnc3c2)C1=O (stereo not shown) .
7.30

* * *

This listing pairs compounds with measured pIC50.
Test system: THP-1
experiment.description: Cell proliferation assay, Cell Titer Glo (CTG) method, THP-1
Assay type: cell-based, human
details: Homo sapiens, THP-1; Table 2; 72 h
pIC50: −log10 of the molar value.

So what's the measured pIC50 for this one? O=C(Nc1ccc(-c2cc(-c3ccc4[nH]ccc4c3)c(=O)[nH]n2)cc1)N1Cc2ccncc2C1
> 11.52

For the compound O=C(Nc1ccc(-c2cc(-c3cccc4[nH]ncc34)c(=O)[nH]n2)cc1)N1Cc2ccncc2C1 , what pIC50 is on record?
≥ 11.52

For the compound shown here, O=C(Nc1ccc(C2=NNC(=O)[C@@](c3cccc4ncccc34)(C(F)(F)F)C2)cc1)N1Cc2ccncc2C1 , give the reported pIC50.
> 11.52

Report pIC50 for O=C(Nc1ccc(-c2cc(-c3ccc4[nH]ncc4c3)c(=O)[nH]n2)cc1)N1Cc2ccncc2C1 please.
> 11.52
